Where do these numbers come from? They come from ChEMBL document CHEMBL2029236.

- experimental-details: Antiproliferative activity against human SNU182 after 72 hrs by CellTiter Glo assay
- Assay type: functional, cell-based
- stated-conditions: SNU-182, 72 h
This section presents compounds with their documented IC50 values.
Numbers only here, please. The scale is nM.

Examples from the recorded data:
smiles-repr	units-label	IC50
C/C(=C\c1csc(C)n1)[C@@H]1C[C@@H]2O[C@]2(C)CCC[C@H](C)[C@H](O)[C@@H](C)C(=O)C(C)(C)[C@@H](O)CC(=O)O1	nM	22.3
CC[C@]1(O)C[C@H]2CN(CCc3c([nH]c4ccccc34)[C@@](C(=O)OC)(c3cc4c(cc3OC)N(C=O)[C@H]3[C@@](O)(C(=O)OC)[C@H](OC(C)=O)[C@]5(CC)C=CCN6CC[C@]43[C@@H]65)C2)C1	nM	35.9
CC(=O)O[C@@]12CO[C@@H]1C[C@H](O)[C@@]1(C)C(=O)[C@H](O)C3=C(C)[C@@H](OC(=O)[C@H](O)[C@@H](NC(=O)OC(C)(C)C)c4ccccc4)C[C@@](O)([C@@H](OC(=O)c4ccccc4)[C@H]21)C3(C)C.O.O.O	nM	39.2

API: the following record is the query input.
Give the measured IC50 of COc1ccc2c(c1N)C(=O)O[C@@H]2[C@H]1c2c(cc3c(c2OC)OCO3)CCN1C .
508
